# measured_target: NKGD2-MICA (Homo sapiens, UniProt P26718)
# Sequence (P26718 whole entry): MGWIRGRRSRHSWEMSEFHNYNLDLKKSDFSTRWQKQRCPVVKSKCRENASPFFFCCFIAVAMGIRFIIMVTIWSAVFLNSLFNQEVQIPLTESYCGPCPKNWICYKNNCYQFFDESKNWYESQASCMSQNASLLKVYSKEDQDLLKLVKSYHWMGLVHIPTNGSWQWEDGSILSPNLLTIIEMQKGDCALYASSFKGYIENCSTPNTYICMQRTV
# Sequence (Q29983 whole entry, further chain): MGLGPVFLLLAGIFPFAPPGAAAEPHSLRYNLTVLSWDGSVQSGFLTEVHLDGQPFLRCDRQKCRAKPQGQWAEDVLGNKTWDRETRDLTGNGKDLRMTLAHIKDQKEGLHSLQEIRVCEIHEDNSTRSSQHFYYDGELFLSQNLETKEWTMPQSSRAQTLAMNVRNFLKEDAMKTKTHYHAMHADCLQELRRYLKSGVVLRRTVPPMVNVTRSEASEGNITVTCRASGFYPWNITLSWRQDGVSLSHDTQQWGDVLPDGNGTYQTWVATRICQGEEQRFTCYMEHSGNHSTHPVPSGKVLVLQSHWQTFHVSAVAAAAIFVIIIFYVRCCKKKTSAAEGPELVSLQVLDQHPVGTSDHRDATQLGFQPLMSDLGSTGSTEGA
# protocol_description: Inhibition of NKG2D (unknown origin)/MICA (unknown origin) protein-protein interaction by cell-based TR-FRET assay
pIC50: −log10 of the molar value.
quantity_measured: pIC50

1) CN(C)C(=O)[C@@H](NC(=O)c1cc(C(=O)NS(C)(=O)=O)ccc1-c1ccc(C(F)(F)F)cc1)c1cccc(C(F)(F)F)c1 ... 6.15
2) CN(C)C(=O)[C@@H](NC(=O)c1cc(-c2nnnn2C)ccc1-c1ccc(C(F)(F)F)cc1)c1cccc(C(F)(F)F)c1 ... 6.05
3) Cc1n[nH]cc1-c1ccc(-c2ccc(C(F)(F)F)cc2)c(C(=O)NC(C(=O)N(C)C)c2cccc(C(F)(F)F)c2)c1 (racemic) ... 6.05
